tested on: rat hepatocytes; experiment: Hepatocyte intrinsic clearance assay (metabolic stability), rat hepatocytes; format: in vitro ADME; details: Rat Hepatocytes; well stirred liver model, fu=1
Please mark met if the recorded EH (hepatic extraction ratio) is equal to or greater than 60%, and not met if it falls below.

>  <COMPOUND>
CCC(C)(O)c1csc(C(=O)c2c[nH]c3cc(F)ccc23)n1 (stereo not shown)

>  <SYSTEM UNDER TEST>
rat hepatocytes

>  <GROUP>
not met

$$$$
>  <COMPOUND>
CC[C@H](O)c1nc(C(=O)c2c[nH]c3cc(F)ccc23)cs1

>  <SYSTEM UNDER TEST>
rat hepatocytes

>  <GROUP>
not met

$$$$
>  <COMPOUND>
COC(=O)c1csc(C(=O)c2c[nH]c3ccccc23)n1 [ARI-001, ITE, reference compound]

>  <SYSTEM UNDER TEST>
rat hepatocytes

>  <GROUP>
met

$$$$
>  <COMPOUND>
CC[C@H](O)c1csc(C(=O)c2c[nH]c3ccc(F)cc23)n1

>  <SYSTEM UNDER TEST>
rat hepatocytes

>  <GROUP>
not met

$$$$
>  <COMPOUND>
CC(C)(N)c1csc(C(=O)c2c[nH]c3cc(F)ccc23)n1

>  <SYSTEM UNDER TEST>
rat hepatocytes

>  <GROUP>
not met

$$$$

* * *

experiment: Hepatocyte intrinsic clearance assay (metabolic stability), human hepatocytes; type: in vitro ADME; conditions: male, human, cryopreserved pooled hepatocytes, Human Hepatocytes, 1 μM test compound
Label Y when hepatocyte CLint at 1 μM is at or above 10 µL/min/1e6 cells; anything below gets N.

>  <MOLECULE>
N[C@@H](c1csc(C(=O)c2c[nH]c3ccccc23)n1)C(F)(F)F

>  <GROUP>
N

$$$$
>  <MOLECULE>
CC[C@H](O)c1csc(C(=O)c2c[nH]c3ccc(F)cc23)n1

>  <GROUP>
Y

$$$$
>  <MOLECULE>
O=C(c1nc(C(O)C(F)(F)F)cs1)c1c[nH]c2ccccc12 (stereo not shown)

>  <GROUP>
Y

$$$$
>  <MOLECULE>
CC[C@H](O)c1nc(C(=O)c2c[nH]c3cc(F)ccc23)cs1

>  <GROUP>
Y

$$$$
>  <MOLECULE>
CC[C@H](O)c1csc(C(=O)c2c[nH]c3cc(F)ccc23)n1

>  <GROUP>
Y

$$$$
>  <MOLECULE>
CC(C)(N)c1csc(C(=O)c2c[nH]c3cc(F)ccc23)n1

>  <GROUP>
N

$$$$
>  <MOLECULE>
CCC(C)(O)c1csc(C(=O)c2c[nH]c3cc(F)ccc23)n1 (stereo not shown)

>  <GROUP>
Y

$$$$
